# credit: paper PMC9919699

% Inhibition values by entry
Tested on: α-glucosidase
Assay: α-glucosidase enzyme inhibition assay (starch substrate, anthrone reagent, 640 nm)
Format: biochemical
Conditions: 500 µg/mL, Table 4 (Met series)
outcome.measure: % Inhibition (%)

[[record]]
compound = "CN(C)C(=N)NC(=N)N=C(c1ccccc1)c1ccccc1 [Met7]"
test_system = "α-glucosidase"
unit_info = "%"
value_measured = 41.84

[[record]]
compound = "C=NC(=N)NC(=N)N(C)C [Met4]"
test_system = "α-glucosidase"
unit_info = "%"
value_measured = 25.77

[[record]]
compound = "CN(C)C(=N)N=C(N)N [Met, N,N-dimethyltriimidodicarbonic diamide, reference compound]"
test_system = "α-glucosidase"
unit_info = "%"
value_measured = 52.83

[[record]]
compound = "CN(C)C(=N)NC(=N)N=C(c1ccccc1)C(O)c1ccccc1 (stereo not shown) [Met9]"
test_system = "α-glucosidase"
unit_info = "%"
value_measured = 29.86

[[record]]
compound = "C/C(=N\\C(=N)NC(=N)N(C)C)c1ccccc1 [Met6]"
test_system = "α-glucosidase"
unit_info = "%"
value_measured = 28.86

[[record]]
compound = "C[C@H]1O[C@H](O[C@H]2[C@H](O)[C@@H](O)[C@@H](O[C@H]3[C@H](O)[C@@H](O)C(O)O[C@@H]3CO)O[C@@H]2CO)[C@H](O)[C@@H](O)[C@@H]1N[C@H]1C=C(CO)[C@@H](O)[C@H](O)[C@H]1O (stereo partly shown) [Acarbose, reference compound]"
test_system = "α-glucosidase"
unit_info = "%"
value_measured = 66.79

[[record]]
compound = "CC(C)=NC(=N)NC(=N)N(C)C [Met5]"
test_system = "α-glucosidase"
unit_info = "%"
value_measured = 39.43


----------
Tested on: α-amylase
Test: α-amylase enzyme inhibition assay (starch, dinitro-salicylic acid, 540 nm)
Format: biochemical
Settings: 1000 µg/mL, Table 8 (MCu series)
% Inhibition values by entry
outcome.measure: % Inhibition

[[record]]
chem_smiles = "COc1cc(C=NC(=N)NC(=N)N(C)C)ccc1O.COc1cc(C=NC(=N)NC(=N)N(C)C)ccc1O.O.O.O.O.O.O=S(=O)([O-])[O-].[Cu+2]"
outcome_measure = "% Inhibition"
value_measured = "84.35 ± 0.51%"

[[record]]
chem_smiles = "C=NC(=N)NC(=N)N(C)C.C=NC(=N)NC(=N)N(C)C.O.O.O.O.O.O=S(=O)([O-])[O-].[Cu+2]"
outcome_measure = "% Inhibition"
value_measured = "48.32 ± 0.51%"

[[record]]
chem_smiles = "CN(C)C(=N)NC(=N)N=CC=Cc1ccccc1.CN(C)C(=N)NC(=N)N=CC=Cc1ccccc1.O.O.O.O.O.O=S(=O)([O-])[O-].[Cu+2]"
outcome_measure = "% Inhibition"
value_measured = "69.40 ± 0.23%"


----------
IC50 values by entry
Molecular target: α-amylase
Assay: α-amylase enzyme inhibition assay (starch, dinitro-salicylic acid, 540 nm)
Assay type: biochemical
Conditions: Table 8 (MCu series), read-out: IC50
outcome.measure: IC50 (µM)

[[record]]
compound = "CN(C)C(=N)NC(=N)N=C(c1ccccc1)C(O)c1ccccc1.CN(C)C(=N)NC(=N)N=C(c1ccccc1)C(O)c1ccccc1.O.O.O.O.O.O=S(=O)([O-])[O-].[Cu+2] (stereo not drawn)"
outcome_measure = "IC50"
value_measured = 130

[[record]]
compound = "CN(C)C(=N)NC(=N)N=CC=Cc1ccccc1.CN(C)C(=N)NC(=N)N=CC=Cc1ccccc1.O.O.O.O.O.O=S(=O)([O-])[O-].[Cu+2]"
outcome_measure = "IC50"
value_measured = 790

[[record]]
compound = "COc1cc(C=NC(=N)NC(=N)N(C)C)ccc1O.COc1cc(C=NC(=N)NC(=N)N(C)C)ccc1O.O.O.O.O.O.O=S(=O)([O-])[O-].[Cu+2]"
outcome_measure = "IC50"
value_measured = 900

[[record]]
compound = "CC(C)=NC(=N)NC(=N)N(C)C.CC(C)=NC(=N)NC(=N)N(C)C.O.O.O.O.O.O=S(=O)([O-])[O-].[Cu+2]"
outcome_measure = "IC50"
value_measured = 320

[[record]]
compound = "CN(C)C(=N)NC(=N)N=Cc1ccccc1.CN(C)C(=N)NC(=N)N=Cc1ccccc1.O.O.O.O.O.O=S(=O)([O-])[O-].[Cu+2]"
outcome_measure = "IC50"
value_measured = 990

[[record]]
compound = "C=NC(=N)NC(=N)N(C)C.C=NC(=N)NC(=N)N(C)C.O.O.O.O.O.O=S(=O)([O-])[O-].[Cu+2]"
outcome_measure = "IC50"
value_measured = 300


----------
System: α-glucosidase
Assay: α-glucosidase enzyme inhibition assay (starch substrate, anthrone reagent, 640 nm)
Assay type: biochemical
Conditions: 250 µg/mL, Table 5 (MCu series)
outcome.measure: % Inhibition (%)

[[record]]
compound = "CN(C)C(=N)NC(=N)N=Cc1ccccc1.CN(C)C(=N)NC(=N)N=Cc1ccccc1.O.O.O.O.O.O=S(=O)([O-])[O-].[Cu+2] [MCu1]"
test_system = "α-glucosidase"
value_measured = 44.24

[[record]]
compound = "C=NC(=N)NC(=N)N(C)C.C=NC(=N)NC(=N)N(C)C.O.O.O.O.O.O=S(=O)([O-])[O-].[Cu+2] [MCu4]"
test_system = "α-glucosidase"
value_measured = 18.64

[[record]]
compound = "CN(C)C(=N)NC(=N)N=CC=Cc1ccccc1.CN(C)C(=N)NC(=N)N=CC=Cc1ccccc1.O.O.O.O.O.O=S(=O)([O-])[O-].[Cu+2] [MCu3]"
test_system = "α-glucosidase"
value_measured = 29.74

[[record]]
compound = "CN(C)C(=N)NC(=N)N=C(c1ccccc1)C(O)c1ccccc1.CN(C)C(=N)NC(=N)N=C(c1ccccc1)C(O)c1ccccc1.O.O.O.O.O.O=S(=O)([O-])[O-].[Cu+2] (stereo not drawn) [MCu9]"
test_system = "α-glucosidase"
value_measured = 15.23

[[record]]
compound = "CC(C)=NC(=N)NC(=N)N(C)C.CC(C)=NC(=N)NC(=N)N(C)C.O.O.O.O.O.O=S(=O)([O-])[O-].[Cu+2] [MCu5]"
test_system = "α-glucosidase"
value_measured = 21.73

[[record]]
compound = "COc1cc(C=NC(=N)NC(=N)N(C)C)ccc1O.COc1cc(C=NC(=N)NC(=N)N(C)C)ccc1O.O.O.O.O.O.O=S(=O)([O-])[O-].[Cu+2] [MCu8]"
test_system = "α-glucosidase"
value_measured = 41.50


----------
Test system: α-glucosidase
Experiment: α-glucosidase enzyme inhibition assay (starch substrate, anthrone reagent, 640 nm)
Assay type: biochemical
Conditions: 1000 µg/mL, Table 4 (Met series)
outcome.measure: % Inhibition

[[record]]
compound = "C[C@H]1O[C@H](O[C@H]2[C@H](O)[C@@H](O)[C@@H](O[C@H]3[C@H](O)[C@@H](O)C(O)O[C@@H]3CO)O[C@@H]2CO)[C@H](O)[C@@H](O)[C@@H]1N[C@H]1C=C(CO)[C@@H](O)[C@H](O)[C@H]1O (stereo partly shown) [Acarbose, reference compound]"
test_system = "α-glucosidase"
outcome_measure = "% Inhibition"
value_measured = "89.01 ± 0.01%"

[[record]]
compound = "CN(C)C(=N)N=C(N)N [Met, N,N-dimethyltriimidodicarbonic diamide, reference compound]"
test_system = "α-glucosidase"
outcome_measure = "% Inhibition"
value_measured = "81.30 ± 0.10%"

[[record]]
compound = "CC(C)=NC(=N)NC(=N)N(C)C [Met5]"
test_system = "α-glucosidase"
outcome_measure = "% Inhibition"
value_measured = "53.44 ± 0.15%"

[[record]]
compound = "C=NC(=N)NC(=N)N(C)C [Met4]"
test_system = "α-glucosidase"
outcome_measure = "% Inhibition"
value_measured = "43.72 ± 0.26%"

[[record]]
compound = "CN(C)C(=N)NC(=N)N=C(c1ccccc1)c1ccccc1 [Met7]"
test_system = "α-glucosidase"
outcome_measure = "% Inhibition"
value_measured = "55.77 ± 0.01%"

[[record]]
compound = "C/C(=N\\C(=N)NC(=N)N(C)C)c1ccccc1 [Met6]"
test_system = "α-glucosidase"
outcome_measure = "% Inhibition"
value_measured = "51.47 ± 0.26%"

[[record]]
compound = "CN(C)C(=N)NC(=N)N=C(c1ccccc1)C(O)c1ccccc1 (stereo not shown) [Met9]"
test_system = "α-glucosidase"
outcome_measure = "% Inhibition"
value_measured = "39.09 ± 0.05%"


----------
System: α-amylase
Experiment: α-amylase enzyme inhibition assay (starch, dinitro-salicylic acid, 540 nm)
Assay type: biochemical
Details: 1000 µg/mL, Table 7 (Met series)
% Inhibition values by entry
outcome.measure: % Inhibition (%)

[[record]]
compound = "C=NC(=N)NC(=N)N(C)C"
outcome_measure = "% Inhibition"
value_measured = 55.48

[[record]]
compound = "CN(C)C(=N)N=C(N)N [Met, N,N-dimethyltriimidodicarbonic diamide, reference compound]"
outcome_measure = "% Inhibition"
value_measured = 85.25

[[record]]
compound = "CN(C)C(=N)NC(=N)N=C(c1ccccc1)C(O)c1ccccc1 (stereo not shown)"
outcome_measure = "% Inhibition"
value_measured = 19.71

[[record]]
compound = "CN(C)C(=N)NC(=N)N=C(c1ccccc1)c1ccccc1"
outcome_measure = "% Inhibition"
value_measured = 48.33

[[record]]
compound = "CC(C)=NC(=N)NC(=N)N(C)C"
outcome_measure = "% Inhibition"
value_measured = 63.47

[[record]]
compound = "C/C(=N\\C(=N)NC(=N)N(C)C)c1ccccc1"
outcome_measure = "% Inhibition"
value_measured = 41.34

[[record]]
compound = "C[C@H]1O[C@H](O[C@H]2[C@H](O)[C@@H](O)[C@@H](O[C@H]3[C@H](O)[C@@H](O)C(O)O[C@@H]3CO)O[C@@H]2CO)[C@H](O)[C@@H](O)[C@@H]1N[C@H]1C=C(CO)[C@@H](O)[C@H](O)[C@H]1O (stereo partly shown) [Acarbose, reference compound]"
outcome_measure = "% Inhibition"
value_measured = 91.58

